# method: Oral absorption in rat
# Type: ADME, organism-based
# test.parameters: in vivo
measured.metric: Fa

Return value of Fa for input "O=c1n(Cc2nc(-c3nccs3)cn2CCCCO)c2cnccc2n1C1CC1" , no commentary. > 60%

###

# method: Apparent permeability in dog RRCK cells
# test.parameters: MDCK
Binary call on Papp: t from 20 nm/s upward, f beneath that.

Identify whether the reported Papp of the following molecule is 20 nm/s or greater: "COCc1cn(CCCCO)c(Cn2c(=O)n(C3CC3)c3ccncc32)n1" f

Please indicate if the recorded Papp for "COC(=O)N1CCC(n2ccc(Cc3nc4ccccc4n3CCCCO)n2)CC1" meets or exceeds 20 nm/s. t

Determine whether measured Papp meets or exceeds 20 nm/s for "O=c1n(Cc2nc3c(n2CCCCO)CCCC3)c2cnccc2n1C1CC1" t

Exam item: decide whether the reported Papp for "O=c1n(Cc2nc(-c3nccs3)cn2CCCCO)c2cnccc2n1C1CC1" is at least 20 nm/s. t

Does "COC(=O)N1CCC(n2c(=O)n(Cc3nc(C)c(C)n3CCCCO)c3cnccc32)CC1" have a reported Papp of at least 20 nm/s? f

State whether the measured Papp reaches 20 nm/s, counting equality as reaching it, for "COC(=O)N1CCC(n2c(=O)n(Cc3nc4ccccc4n3CCCCO)c3ccccc32)CC1" t

###

# method: Half life in iv dosed rat
# test.parameters: in vivo
measured.metric: half-life

Kindly indicate its recorded half-life. Item: "O=c1n(Cc2nc(-c3nccs3)cn2CCCCO)c2cnccc2n1C1CC1" 1.5 h

###

# System: Respiratory syncytial virus
# method: Antiviral activity against Respiratory syncytial virus A2 infected in A549 cells after 3 days by CelltitreGlo assay
# Type: functional, organism-based
# test.parameters: human respiratory syncytial virus, A2, A549, 72 h
pIC50: −log10 of the molar value.
Output yes (1) for pIC50 not less than 6; output no (0) otherwise.

Decide: pIC50 of "COCc1cn(CCCCO)c(Cn2c(=O)n(C3CC3)c3ccncc32)n1" >= 6? no (0)

pIC50 >= 6 for "Cn1nccc1-c1cn(CCCCO)c(Cn2c(=O)n(C3CC3)c3ccncc32)n1" ? no (0)

Hi team, for "CC(C)n1nc(Cn2c(=O)c3ccccc3n2CCCCO)c2ccccc21" , is the recorded pIC50 at or above 6? yes (1)

For this compound, is measured pIC50 6 or higher? "CC(C)n1nc(CCn2nc(CCCCO)c3ccccc32)c2cnccc21" no (0)

Decide: is the reported value of pIC50 for "Cc1cc(CCn2cc(-c3cccnc3)nc2Cn2c(=O)n(C3CC3)c3ccncc32)no1" equal to or greater than 6? yes (1)

API: above_or_equal(metric=pIC50, cutoff=6) for item "Cn1ccnc1-c1cn(CCCCO)c(Cn2c(=O)n(C3CC3)c3ccncc32)n1" no (0)

###

# method: Octanol-neutral buffer partition co-efficient, log D of the compound at pH 7.4
Binarize logD at 2; below is criterion met, at or above is criterion not met.

logD under 2? Item: "O=c1n(Cc2nc3c(n2CCCCO)CCCC3)c2cnccc2n1C1CC1" criterion met

In the record for "CC(C)n1nc(Cn2nc3c(c2CCCCO)CCCC3)c2ccccc21" , is logD less than 2? criterion not met

Quick check: does "Cc1nnc(-c2cn(CCCCO)c(Cn3c(=O)n(C4CC4)c4ccncc43)n2)s1" have logD under 2? criterion met

Hello, is logD of the following molecule strictly smaller than 2? "COC(=O)N1CCC(n2c(=O)n(Cc3nc(C)c(C)n3CCCCO)c3cnccc32)CC1" criterion met

Below 2 on logD? Entry "Cn1nccc1-c1cn(CCCCO)c(Cn2c(=O)n(C3CC3)c3ccncc32)n1" criterion met

Determine if "Cc1cc(CCn2cc(-c3cccnc3)nc2Cn2c(=O)n(C3CC3)c3ccncc32)no1" shows logD strictly lower than 2. criterion met

Find out if reported logD for "COC(=O)c1nc(Cn2c(=O)n(C3CC3)c3ccncc32)n(CCCCO)c1C" is less than 2 criterion met

Please check: logD for "CC(C)n1nc(Cn2nc3ccccc3c2CCCCO)c2ccccc21" , strictly under 2 or not? criterion not met

Criterion: logD strictly below 2. Is it met by "Cc1cc(CCn2cc(-c3cccnc3)nc2Cn2c(=O)n(C3CC3)c3ccncc32)on1" ? criterion met

Does the reported logD of "CC(C)n1nc(Cn2nc3ccccc3c2CCCO)c2ccccc21" stay below 2? criterion not met

Field: below-cutoff. Rule: recorded logD strictly less than 2. Subject: "CC(C)n1nc(CCn2nc(CCCCO)c3ccccc32)c2cnccc21" criterion not met

logD strictly < 2 for this molecule? "Cc1ccc(CCn2cc(-c3cccnc3)nc2Cn2c(=O)n(C3CC3)c3ccncc32)cn1" criterion met

Does this molecule meet the criterion logD < 2? "CC(C)n1nc(Cn2c(=O)c3ccccc3n2CCCCO)c2ccccc21" criterion not met

Is logD strictly under 2 for the entry "COCc1cn(CCCCO)c(Cn2c(=O)n(C3CC3)c3ccncc32)n1" ? criterion met

Lab note: confirm whether the reported logD for this molecule is below 2, equality not counting. molecule: "CC(C)n1nc(Cn2nc3ccccc3c2OCCCO)c2ccccc21" criterion not met

Input "CC(C)n1nc(Cn2nc3ccccc3c2C(=O)NCCCO)c2ccccc21" ; condition: logD strictly below 2. Does it hold? criterion not met

I'd appreciate it if you could check whether "CC(C)n1nc(Cn2nc3ccccc3c2OCCCCO)c2ccccc21" has logD smaller than 2. criterion not met

I'd appreciate it if you could check whether "CC(=O)N1CCC(Cn2nc3ccccc3c2CCCCO)CC1" has logD smaller than 2. criterion met

Quick check: logD of "O=c1n(Cc2nc(-c3nccs3)cn2CCCCO)c2cnccc2n1C1CC1" under 2? criterion met

Is logD of "Cn1ccnc1-c1cn(CCCCO)c(Cn2c(=O)n(C3CC3)c3ccncc32)n1" strictly below 2? criterion met

# strict comparison: is reported logD < 2? input = "Cc1ncc(CCn2cc(-c3cccnc3)nc2Cn2c(=O)n(C3CC3)c3ccncc32)o1" criterion met

Below 2 on logD? Entry "O=c1n(Cc2nc(-c3ccccn3)cn2CCCCO)c2cnccc2n1C1CC1" criterion met

Quick check: logD of "O=c1n(Cc2nc(-c3ncco3)cn2CCCCO)c2cnccc2n1C1CC1" under 2? criterion met

logD strictly < 2 for this molecule? "O=c1n(Cc2nc(-c3ncccn3)cn2CCCCO)c2cnccc2n1C1CC1" criterion met

In plain terms, does "O=c1n(Cc2nc(-c3cccnc3)cn2CCCCO)c2cnccc2n1C1CC1" come in under 2 for logD? criterion met

Determine if "COC(=O)N1CCC(n2c(=O)n(Cc3nc4ccccc4n3CCCCO)c3ccccc32)CC1" shows logD strictly lower than 2. criterion not met

###

# method: Oral bioavailability in rat
# test.parameters: in vivo
measured.metric: bioavailability (%)
Record the value in %, omitting the unit from your answer.

Supply measured bioavailability of "O=c1n(Cc2nc(-c3nccs3)cn2CCCCO)c2cnccc2n1C1CC1" in your reply. 34

###

# method: Apparent intrinsic clearance in human liver microsomes
Decision: microsomal CLint compared against 80 µL/min/mg; not below it gives fulfilled, below it gives not fulfilled.

Hi, just wondering whether "COC(=O)N1CCC(n2c(=O)n(Cc3nc4ccccc4n3CCCCO)c3ccccc32)CC1" shows microsomal CLint of 80 µL/min/mg or higher. not fulfilled

Could you verify whether the entry "COC(=O)N1CCC(n2ccc(Cc3nc4ccccc4n3CCCCO)n2)CC1" shows microsomal CLint of no less than 80 µL/min/mg? fulfilled

API: above_or_equal(metric=microsomal CLint, cutoff=80 µL/min/mg) for item "Cc1nnc(-c2cn(CCCCO)c(Cn3c(=O)n(C4CC4)c4ccncc43)n2)s1" not fulfilled

Please tell me: is the compound "Cc1cc(CCn2cc(-c3cccnc3)nc2Cn2c(=O)n(C3CC3)c3ccncc32)no1" at or over 80 µL/min/mg in terms of microsomal CLint? not fulfilled

State whether the measured microsomal CLint reaches 80 µL/min/mg, counting equality as reaching it, for "CC(C)n1nc(Cn2c(=O)c3ccccc3n2CCCCO)c2ccccc21" fulfilled

Check the entry "Cc1ccc(CCn2cc(-c3cccnc3)nc2Cn2c(=O)n(C3CC3)c3ccncc32)cn1" : does microsomal CLint equal or exceed 80 µL/min/mg? not fulfilled

Is reported microsomal CLint greater than or equal to 80 µL/min/mg here: "O=c1n(Cc2nc(-c3ccccn3)cn2CCCCO)c2cnccc2n1C1CC1" not fulfilled

Tell me whether microsomal CLint is at least 80 µL/min/mg here: "CC(C)n1nc(Cn2nc3ccccc3c2OCCCO)c2ccccc21" fulfilled

State whether the measured microsomal CLint reaches 80 µL/min/mg, counting equality as reaching it, for "COC(=O)N1CCC(n2c(=O)n(Cc3nc(C)c(C)n3CCCCO)c3cnccc32)CC1" not fulfilled

Threshold query (microsomal CLint >= 80 µL/min/mg) on "O=c1n(Cc2nc(-c3nccs3)cn2CCCCO)c2cnccc2n1C1CC1" not fulfilled

Could you tell me if the measured microsomal CLint of "COC(=O)c1nc(Cn2c(=O)n(C3CC3)c3ccncc32)n(CCCCO)c1C" reaches 80 µL/min/mg or more? not fulfilled

Entry "O=c1n(Cc2nc(-c3ncccn3)cn2CCCCO)c2cnccc2n1C1CC1" : is its microsomal CLint no less than 80 µL/min/mg? not fulfilled

State whether the measured microsomal CLint reaches 80 µL/min/mg, counting equality as reaching it, for "CC(C)n1nc(Cn2nc3c(c2CCCCO)CCCC3)c2ccccc21" fulfilled

// inclusive: microsomal CLint at least 80 µL/min/mg? input: "Cc1ncc(CCn2cc(-c3cccnc3)nc2Cn2c(=O)n(C3CC3)c3ccncc32)o1" not fulfilled

Kindly determine if microsomal CLint recorded for "COCc1cn(CCCCO)c(Cn2c(=O)n(C3CC3)c3ccncc32)n1" is above or exactly 80 µL/min/mg. not fulfilled

Given the entry "O=c1n(Cc2nc3c(n2CCCCO)CCCC3)c2cnccc2n1C1CC1" , answer whether its microsomal CLint meets or surpasses 80 µL/min/mg. not fulfilled

# bool: microsomal CLint of "Cn1nccc1-c1cn(CCCCO)c(Cn2c(=O)n(C3CC3)c3ccncc32)n1" >= 80 µL/min/mg not fulfilled

Kindly determine if microsomal CLint recorded for "CC(C)n1nc(CCn2nc(CCCCO)c3ccccc32)c2cnccc21" is above or exactly 80 µL/min/mg. fulfilled

Check this compound for microsomal CLint at or above 80 µL/min/mg: "O=c1n(Cc2nc(-c3ncco3)cn2CCCCO)c2cnccc2n1C1CC1" not fulfilled

Hello, I need to know if "Cn1ccnc1-c1cn(CCCCO)c(Cn2c(=O)n(C3CC3)c3ccncc32)n1" has measured microsomal CLint not below 80 µL/min/mg. Thanks! not fulfilled

hey, is microsomal CLint for this one >= 80 µL/min/mg? "O=c1n(Cc2nc(-c3cccnc3)cn2CCCCO)c2cnccc2n1C1CC1" not fulfilled

Test whether the compound "O=c1n(Cc2nc(Cl)c(Cl)n2CCCCO)c2cnccc2n1C1CC1" records microsomal CLint of 80 µL/min/mg or higher. not fulfilled

hey, is microsomal CLint for this one >= 80 µL/min/mg? "CC(=O)N1CCC(Cn2nc3ccccc3c2CCCCO)CC1" not fulfilled
